- system: GalNAc(a1-3)Gal
- assayOverview: glycan array binding signal (z-score within array); higher = stronger binding
- experimentalConditions: glycan notation: IUPAC condensed, linker removed
The sample as a whole holds a higher share of the strongest signals than the screen did.
Would you please tag the item Yes when its glycan array binding signal (z-score) is 0.7 or above, and No when it is below?

Task: hey, is glycan array binding signal (z-score) for this one >= 0.7? DCAL1 (Homo sapiens), Q8IZS7 (protein) MVSNFFHVIQVFEKSATLISKTEHIGFVIYSWRKSTTHLGSRRKFAISIYLSEVSLQKYDCPFSGTSFVVFSLFLICAMAGDVVYADIKTVRTSPLELAFPLQRSVSFNFSTVHKSCPAKDWKVHKGKCYWIAETKKSWNKSQNDCAINNSYLMVIQDITAMVRFNI
Output: No

Task: Exam item: decide whether the reported glycan array binding signal (z-score) for CSA (Cytisus scoparius), P29257 (protein) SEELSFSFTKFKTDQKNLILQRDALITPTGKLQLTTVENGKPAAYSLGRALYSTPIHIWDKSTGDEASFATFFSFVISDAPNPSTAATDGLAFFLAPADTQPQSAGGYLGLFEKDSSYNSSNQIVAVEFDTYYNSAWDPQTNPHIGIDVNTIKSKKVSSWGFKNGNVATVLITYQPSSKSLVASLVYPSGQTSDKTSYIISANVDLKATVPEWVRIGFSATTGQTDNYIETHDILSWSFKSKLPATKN is at least 0.7.
Output: Yes

Task: Does glycan array binding signal (z-score) meet or surpass 0.7 for Strep tagII-anxA1 (Homo sapiens), P04083 (protein) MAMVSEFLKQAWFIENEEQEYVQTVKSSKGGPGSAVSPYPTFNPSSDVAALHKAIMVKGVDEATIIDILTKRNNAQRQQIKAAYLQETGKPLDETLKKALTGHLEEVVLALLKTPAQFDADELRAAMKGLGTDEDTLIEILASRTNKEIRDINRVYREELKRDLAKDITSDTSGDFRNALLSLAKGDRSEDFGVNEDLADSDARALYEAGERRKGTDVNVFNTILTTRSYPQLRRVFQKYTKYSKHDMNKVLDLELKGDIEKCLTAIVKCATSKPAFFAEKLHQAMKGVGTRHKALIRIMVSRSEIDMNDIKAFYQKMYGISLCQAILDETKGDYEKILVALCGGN ?
Output: No

Task: Quick check: does SLLPI (Homo sapiens), Q8IXA5 (protein) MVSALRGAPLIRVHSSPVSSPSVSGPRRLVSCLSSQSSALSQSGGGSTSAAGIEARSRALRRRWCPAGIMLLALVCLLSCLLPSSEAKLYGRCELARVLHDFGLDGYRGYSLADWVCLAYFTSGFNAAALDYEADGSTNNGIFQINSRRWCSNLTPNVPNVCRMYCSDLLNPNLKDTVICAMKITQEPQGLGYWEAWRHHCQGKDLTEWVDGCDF have glycan array binding signal (z-score) greater than or equal to 0.7?
Output: Yes

Task: Check if glycan array binding signal (z-score) >= 0.7 (inclusive). Item: FBG3 (Homo sapiens), Q9H4M3 (protein) MAVGNINELPENILLELFTHVPARQLLLNCRLVCSLWRDLIDLVTLWKRKCLREGFITEDWDQPVADWKIFYFLRSLHRNLLHNPCAEEGFEFWSLDVNGGDEWKVEDLSRDQRKEFPNDQVKKYFVTSYYTCLKSQVVDLKAEGYWEELMDTTRPDIEVKDWFAARPDCGSKYQLCVQLLSSAHAPLGTFQPDPATIQQKSDAKWREVSHTFSNYPPGVRYIWFQHGGVDTHYWAGWYGPRVTNSSITIGPPLP
Output: No

The reported numbers originate from the supplement of paper PMC8728848.
